Test system: Alopecurus myosuroides (ALOMY)
Assay: Glasshouse assay for herbicidal activity, pre-/post-emergence (percentage phytotoxicity)
Assay type: in vivo
Conditions: Alopecurus myosuroides, 360 h; Rate 250 g/ha; post-emergence; visual assessment 15 DAA; 100%=total damage, 0%=no damage; read-out: Post-emergence herbicidal activity (percentage phytotoxicity), ALOMY POST
Procedure: Seeds of a variety of monocotyledonous and dicotyledonous test plants are sown in standard soil in pots. […] 15 days after application of the test herbicide (15DAA) (for post-emergence), and 20 days after application of the test herbicide (20DAA) (for pre-emergence), the test plants are evaluated visually, and an assessed percentage phytotoxicity score is given for each herbicidal application on each plant species (with 100%=total damage to plant; 0%=no damage to plant). […]
Lab note: compare pest or weed control at 250 g/ha with 90%, writing label 1 if less and label 0 if equal or more.

Examples from the recorded data:
COMPOUND	QUALITATIVE LABEL
Cc1cc(C)c(C2C(=O)CC(CCNC(=O)NC(=O)c3ccc(C(F)(F)F)cc3F)C2=O)c(C)c1 (stereo not shown)	label 1
CC#Cc1cc(C)c(C2C(=O)CC(CCNC(=O)C3=NOC(C)(C)C3)C2=O)c(C)c1 (stereo not shown)	label 0
Cc1cc(C)c(C2C(=O)CC(CCNc3ccc(C#N)cn3)C2=O)c(C)c1 (stereo not shown)	label 0
Cc1cc(C)c(C2C(=O)CC(CCNC(=O)NC(=O)c3ccc(F)cc3C(F)(F)F)C2=O)c(C)c1 (stereo not shown)	label 0
Cc1cc(C)c(C2C(=O)CC(CCNC(=O)NCc3ccccc3)C2=O)c(C)c1 (stereo not shown)	label 1

Determine whether this compound shows pest or weed control at 250 g/ha lower than 90% (ties excluded): Cc1cc(C)c(C2C(=O)CC(CCNC(=O)NC(=O)c3ccccc3Cl)C2=O)c(C)c1 (stereo not shown)
label 0

Just wondering, is pest or weed control at 250 g/ha of CON=C(C#N)C(=O)NCCC1CC(=O)C(c2c(C)cc(-n3cc(Cl)cn3)cc2C)C1=O (stereo not shown) below 90%?
label 1

is_below(pest or weed control at 250 g/ha, 90%) for Cc1cc(C)c(C2C(=O)CC(CCNC(=O)Nc3ccncn3)C2=O)c(C)c1 (stereo not shown) ?
label 1

Please indicate whether the reported pest or weed control at 250 g/ha of Cc1cc(-n2cc(Cl)cn2)cc(C)c1C1C(=O)CC(CCNC(=O)Nc2ccncn2)C1=O.Cl (stereo not shown) is strictly below 90%.
label 1
